# TEST TARGET: human Claudin18.2 (human)
# ASSAY: cell-based or functional assay
Cut-off 0.5 µg/mL on CDC EC50: below means Condition met, at or above means Condition not met.

Lab note: CDC EC50 threshold 0.5 µg/mL. Does this binder come in strictly under it? 280F3B6 (antibody, V domains shown) VH: QAYLQQSGAELVRSGASVKMSCKASGYTFTSHNMHWVKQTPGQGLEWIGYIYPGNGGTNYNQKFKGKATLTADTSSSTAYMQISSLTSEDSAVYFCTRDYYGNSFAYWGQGTLVTVSA VL: DIVMTQSPSSLTEKAGERVSMSCKSSQSLFNSGNQKNYLTWYQQKPGQPPKLLIYWASTRESGVPDRFTGSGSGTDFTLTISSVQAEDLAVYYCQNDYWYPFTFGAGTKLELK
Condition not met

Please answer likewise for 219F9B8 (antibody, V domains shown) VH: QAYLQQSGAELVRSGASVRMSCKASGYTFTSYNMHWVKQTPGQGLEWIGYIYPGNGHTNYNQKFKGKATLTADTSSSTAYMQISSLTSEDSAVYFCATGRGFAYWGQGTLVTVSA VL: DIVMTQSPSSLTVTAGEKVTMSCKSSQSLLNSGNQKNYLTWYQQKPGQPPKLLIYRASTRESGVPDRFTGSGSGTDFTLTISSVQAEDLAVYYCQNDYSYPLTFGVGTKLELK
Condition met

Now consider 370E2B12C3 (antibody, V domains shown) VH: QVQLKESGPGLVAPSQSLSITCTVSGFSLTTYGVHWVRQPPGKGLEWLGVIWAGGSTNYNSALMSRVSINKDNSKSQVFIKMNSLQADDTALYYCARAAYYGNGLDYWGQGTTLTVSS VL: DIVMTQSPSSLTVTAGEKVTMSCKSSQTLLNSGNQKNYLTWYQQKPGQPPKLLIYWASTGESGVPDRFTGSGSGTDFTLTISSVQAEDLAVYFCQNAYFYPFTFGGGTKLEIK .
Condition met

Now the binder 292D9C7 (antibody, V domains shown) VH: QVQLKESGPGLVAPSQSLSITCTVSGFSLTDYGVSWIRQPPGKGLEWLGVIWGGGNAYYNSALKSRLSISKDNSKSQVFLKMNSLRTDDTAMYYCAKNGLLRYLDYWGQGSTLTVSS VL: DTVMTQSPSSLTVTAGEKVTMSCKSSQSLLNSGNQKNYLTWYQQKPGQPPKLLIYWASTRESGVPDRFTGSGSGRDFTLTISSVQVEDLAIYYCQNDYYYPLTFGAGTKVELK
Condition not met

Attention now shifts to the item below.
Report whether reported CDC EC50 is lower than 0.5 µg/mL (strictly) for 217D9G2 (antibody, V domains shown) VH: QAYLQQSGAELVRSGASVKMSCKASGFTFTSYNIHWVKQTPGQGLEWIGYISPGNGGSNYNLNFKDKATLTAATSSTTAYMQISSLTSEDSAVYFCATGRGFAYWGQGTLVTVSA VL: DIVMTQSPSSLTVTPGEKVTMSCRSSQSLFNSGNQKNYLIWYQQKPGQPPKLLIYRASTRDSGVPDRFTGSGSGTDFTLTISNVQAEDLAVYYCQNDYSYPLTFGAGTKLELK
Condition met

Where do the numbers come from? From patent US20220073643A1.
